Test Name: Cytotoxicity against human HaCaT cells assessed as reduction in cell viability incubated for 72 hrs by resazurin dye based assay
Type: toxicity
Here the recorded IC50 at 72 h is given for each entry.

| Compound | IC50 at 72 h |
| --- | --- |
| CCS(=O)(=O)[C@@H]1[C@@H](OC(C)=O)[C@H](N=C=S)O[C@H](COC(C)=O)[C@H]1OC(C)=O | 35.2 µM |
| CC(=O)OC[C@H]1O[C@@H](N=C=S)[C@H](OC(C)=O)[C@@H](Sc2ccccc2)[C@@H]1OC(C)=O | 23.2 µM |
| CCS[C@@H]1[C@@H](OC(C)=O)[C@H](N=C=S)O[C@H](COC(C)=O)[C@H]1OC(C)=O | 46.3 µM |
| CS[C@@H]1[C@@H](OC(C)=O)[C@H](N=C=S)O[C@H](COC(C)=O)[C@H]1OC(C)=O | 45.3 µM |
| CS(=O)(=O)CCCN=C=S | 35.9 µM |
| Nc1ccn([C@@H]2O[C@H](CO)[C@@H](O)C2(F)F)c(=O)n1 [GEMCITABINE] | 7.1 µM |
| CC(=O)OC[C@H]1O[C@@H](N=C=S)[C@H](OC(C)=O)[C@@H](OC(C)=O)[C@@H]1OC(C)=O | 71.4 µM |
| C[S+]([O-])CCCN=C=S (racemic) | 33 µM |

###

Test Name: Selectivity index, ratio of IC50 for human HaCaT cells to IC50 for human MeWo cells
Type: toxicity
Study Conditions: HaCaT cells versus MeWo cells, read-out: Ratio IC50
Output label 1 for records whose selectivity ratio is lower than 1, label 0 for records at or above 1.

| Structure Smiles String | Category |
| --- | --- |
| CSCCCN=C=S | label 0 |
| CS(=O)(=O)CCCN=C=S | label 0 |
| CC(=O)OC[C@H]1O[C@@H](N=C=S)[C@H](OC(C)=O)[C@@H](S(=O)(=O)c2ccccc2)[C@@H]1OC(C)=O | label 0 |
| CC(=O)OC[C@H]1O[C@@H](N=C=S)[C@H](OC(C)=O)[C@@H]([S@@+]([O-])c2ccccc2)[C@@H]1OC(C)=O | label 1 |
| CC(=O)OC[C@H]1O[C@@H](N=C=S)[C@H](OC(C)=O)[C@@H](S(C)(=O)=O)[C@@H]1OC(C)=O | label 0 |

###

Tested on: MeWo
Test Name: Cytotoxicity against human MeWo cells assessed as reduction in cell viability incubated for 72 hrs by resazurin dye based assay
Type: functional
Here the recorded log10(IC50) is given for each entry.
Parameter: log10(IC50) (log10 of the value in µM)

| Compound | Target Under Test | Recorded Number |
| --- | --- | --- |
| CC[S+]([O-])[C@@H]1[C@@H](OC(C)=O)[C@H](N=C=S)O[C@H](COC(C)=O)[C@H]1OC(C)=O (mixture of isomers) | MeWo | 2.07 |
| CC(=O)OC[C@H]1O[C@@H](N=C=S)[C@H](OC(C)=O)[C@@H](S(C)(=O)=O)[C@@H]1OC(C)=O | MeWo | 1.59 |
| CC(=O)OC[C@H]1O[C@@H](N=C=S)[C@H](OC(C)=O)[C@@H]([S@@+]([O-])c2ccccc2)[C@@H]1OC(C)=O | MeWo | 1.83 |
| CCS[C@@H]1[C@@H](OC(C)=O)[C@H](N=C=S)O[C@H](COC(C)=O)[C@H]1OC(C)=O | MeWo | 1.70 |
| CC(=O)OC[C@H]1O[C@@H](N=C=S)[C@H](OC(C)=O)[C@@H]([S+](C)[O-])[C@@H]1OC(C)=O (mixture of isomers) | MeWo | 2.25 |
| CC(=O)OC[C@H]1O[C@@H](N=C=S)[C@H](OC(C)=O)[C@@H](Sc2ccccc2)[C@@H]1OC(C)=O | MeWo | 1.46 |
| CSCCCN=C=S | MeWo | 1.50 |
| C[S+]([O-])CCCN=C=S (racemic) | MeWo | 1.52 |
| CC(=O)OC[C@H]1O[C@@H](N=C=S)[C@H](OC(C)=O)[C@@H](OC(C)=O)[C@@H]1OC(C)=O | MeWo | 1.76 |
| CS(=O)(=O)CCCN=C=S | MeWo | 1.47 |
| CS[C@@H]1[C@@H](OC(C)=O)[C@H](N=C=S)O[C@H](COC(C)=O)[C@H]1OC(C)=O | MeWo | 1.67 |
| CC(=O)OC[C@H]1O[C@@H](N=C=S)[C@H](OC(C)=O)[C@@H]([S@+]([O-])c2ccccc2)[C@@H]1OC(C)=O | MeWo | 1.76 |
| CCS(=O)(=O)[C@@H]1[C@@H](OC(C)=O)[C@H](N=C=S)O[C@H](COC(C)=O)[C@H]1OC(C)=O | MeWo | 1.52 |
| CC(=O)OC[C@H]1O[C@@H](N=C=S)[C@H](OC(C)=O)[C@@H](S(=O)(=O)c2ccccc2)[C@@H]1OC(C)=O | MeWo | 1.36 |
| Nc1ccn([C@@H]2O[C@H](CO)[C@@H](O)C2(F)F)c(=O)n1 | MeWo | 0.72 |

###

Here the recorded selectivity ratio is given for each entry.
Test Name: Selectivity index, ratio of IC50 for human HaCaT cells to IC50 for human MeWo cells
Type: toxicity
Study Conditions: HaCaT cells versus MeWo cells, read-out: Ratio IC50
Parameter: selectivity ratio

| Compound | Recorded Number |
| --- | --- |
| Nc1ccn([C@@H]2O[C@H](CO)[C@@H](O)C2(F)F)c(=O)n1 | 1.6 |
| CCS(=O)(=O)[C@@H]1[C@@H](OC(C)=O)[C@H](N=C=S)O[C@H](COC(C)=O)[C@H]1OC(C)=O | 1.1 |
| CC(=O)OC[C@H]1O[C@@H](N=C=S)[C@H](OC(C)=O)[C@@H](Sc2ccccc2)[C@@H]1OC(C)=O | 0.9 |
| C[S+]([O-])CCCN=C=S (racemic) | 1 |
| CS[C@@H]1[C@@H](OC(C)=O)[C@H](N=C=S)O[C@H](COC(C)=O)[C@H]1OC(C)=O | 1 |

###

Test Name: Selectivity index, ratio of IC50 for human HaCaT cells to IC50 for human MeWo cells
Format: toxicity
Study Conditions: HaCaT cells versus MeWo cells, read-out: Ratio IC50

| Compound | selectivity ratio |
| --- | --- |
| CCS[C@@H]1[C@@H](OC(C)=O)[C@H](N=C=S)O[C@H](COC(C)=O)[C@H]1OC(C)=O | 0.9 |
| CC(=O)OC[C@H]1O[C@@H](N=C=S)[C@H](OC(C)=O)[C@@H](OC(C)=O)[C@@H]1OC(C)=O | 1.2 |
| CC(=O)OC[C@H]1O[C@@H](N=C=S)[C@H](OC(C)=O)[C@@H]([S@+]([O-])c2ccccc2)[C@@H]1OC(C)=O | 1.1 |
| CC[S+]([O-])[C@@H]1[C@@H](OC(C)=O)[C@H](N=C=S)O[C@H](COC(C)=O)[C@H]1OC(C)=O (mixture of isomers) | 1.1 |

###

Test Name: Selectivity index, ratio of IC50 for human HaCaT cells to IC50 for human A549 cells
Assay type: toxicity
Study Conditions: HaCaT cells versus A549 cells, read-out: Ratio IC50

| Molecule | selectivity ratio |
| --- | --- |
| CCS(=O)(=O)[C@@H]1[C@@H](OC(C)=O)[C@H](N=C=S)O[C@H](COC(C)=O)[C@H]1OC(C)=O | 0.6 |
| CS[C@@H]1[C@@H](OC(C)=O)[C@H](N=C=S)O[C@H](COC(C)=O)[C@H]1OC(C)=O | 0.9 |
| CS(=O)(=O)CCCN=C=S | 1.9 |
| CC(=O)OC[C@H]1O[C@@H](N=C=S)[C@H](OC(C)=O)[C@@H](S(=O)(=O)c2ccccc2)[C@@H]1OC(C)=O | 0.7 |
| Nc1ccn([C@@H]2O[C@H](CO)[C@@H](O)C2(F)F)c(=O)n1 | 2.6 |
| CSCCCN=C=S | 1.7 |
| CC(=O)OC[C@H]1O[C@@H](N=C=S)[C@H](OC(C)=O)[C@@H](OC(C)=O)[C@@H]1OC(C)=O | 1.1 |
| C[S+]([O-])CCCN=C=S (racemic) | 1.8 |
| CC(=O)OC[C@H]1O[C@@H](N=C=S)[C@H](OC(C)=O)[C@@H]([S@+]([O-])c2ccccc2)[C@@H]1OC(C)=O | 1 |
| CCS[C@@H]1[C@@H](OC(C)=O)[C@H](N=C=S)O[C@H](COC(C)=O)[C@H]1OC(C)=O | 0.9 |
| CC(=O)OC[C@H]1O[C@@H](N=C=S)[C@H](OC(C)=O)[C@@H]([S@@+]([O-])c2ccccc2)[C@@H]1OC(C)=O | 0.8 |
| CC[S+]([O-])[C@@H]1[C@@H](OC(C)=O)[C@H](N=C=S)O[C@H](COC(C)=O)[C@H]1OC(C)=O (mixture of isomers) | 0.9 |
| CC(=O)OC[C@H]1O[C@@H](N=C=S)[C@H](OC(C)=O)[C@@H](S(C)(=O)=O)[C@@H]1OC(C)=O | 0.6 |
| CC(=O)OC[C@H]1O[C@@H](N=C=S)[C@H](OC(C)=O)[C@@H]([S+](C)[O-])[C@@H]1OC(C)=O (mixture of isomers) | 1 |
| CC(=O)OC[C@H]1O[C@@H](N=C=S)[C@H](OC(C)=O)[C@@H](Sc2ccccc2)[C@@H]1OC(C)=O | 1 |

Value source: ChEMBL document CHEMBL6109107
